VALUE KIND: intrinsic clearance, rat liver microsomes (mL/min/kg)

Here is how some compounds turned out for intrinsic clearance, rat liver microsomes.
{"COMPOUND": "CN(Cc1cccc(C#N)c1)c1cnc2ccccc2n1", "OBS VALUE": 477}
{"COMPOUND": "O=C1CC[C@H](O)[C@@H](c2cccc(Cl)c2)N1Cc1ccccc1", "OBS VALUE": 450}
{"COMPOUND": "CN(C)CCOc1cc(-c2cn[nH]c2)ccc1NC(=O)C1COc2ccccc2O1 (centres undefined)", "OBS VALUE": 691}
{"COMPOUND": "COCc1ccccc1COC(=O)c1ccc(C)nc1", "OBS VALUE": 2220}
{"COMPOUND": "CCN1CCc2ncnc(N(C)Cc3ccc4c(c3)OCCO4)c2C1", "OBS VALUE": 448}

[1] O=C(NCc1nncn1-c1ccccc1)C1CCCC1
[2] COc1ccc(Cl)cc1N(CC(=O)Nc1ccccc1C(=O)NCc1ccccc1)S(C)(=O)=O
Consider 1 and 2 . Which of these has its intrinsic clearance, rat liver microsomes at a higher number? API: response body contains the label of the selected item.
2
(2: 1370 mL/min/kg, 1: 12.2 mL/min/kg)

[A] O=C(C1CCC(O)CC1)N1CCCN(c2ccc(F)cc2)CC1 (centres undefined)
[B] Nc1nc(N2CCN(CC3CCCC3)C(=O)C2)cc(-n2cccn2)n1
Could you tell me which of A and B has the lower intrinsic clearance, rat liver microsomes reading? API: response body contains the label of the selected item.
A
